# target or system: Androgen receptor (Rattus norvegicus, UniProt P15207)
# Sequence (P15207 whole entry): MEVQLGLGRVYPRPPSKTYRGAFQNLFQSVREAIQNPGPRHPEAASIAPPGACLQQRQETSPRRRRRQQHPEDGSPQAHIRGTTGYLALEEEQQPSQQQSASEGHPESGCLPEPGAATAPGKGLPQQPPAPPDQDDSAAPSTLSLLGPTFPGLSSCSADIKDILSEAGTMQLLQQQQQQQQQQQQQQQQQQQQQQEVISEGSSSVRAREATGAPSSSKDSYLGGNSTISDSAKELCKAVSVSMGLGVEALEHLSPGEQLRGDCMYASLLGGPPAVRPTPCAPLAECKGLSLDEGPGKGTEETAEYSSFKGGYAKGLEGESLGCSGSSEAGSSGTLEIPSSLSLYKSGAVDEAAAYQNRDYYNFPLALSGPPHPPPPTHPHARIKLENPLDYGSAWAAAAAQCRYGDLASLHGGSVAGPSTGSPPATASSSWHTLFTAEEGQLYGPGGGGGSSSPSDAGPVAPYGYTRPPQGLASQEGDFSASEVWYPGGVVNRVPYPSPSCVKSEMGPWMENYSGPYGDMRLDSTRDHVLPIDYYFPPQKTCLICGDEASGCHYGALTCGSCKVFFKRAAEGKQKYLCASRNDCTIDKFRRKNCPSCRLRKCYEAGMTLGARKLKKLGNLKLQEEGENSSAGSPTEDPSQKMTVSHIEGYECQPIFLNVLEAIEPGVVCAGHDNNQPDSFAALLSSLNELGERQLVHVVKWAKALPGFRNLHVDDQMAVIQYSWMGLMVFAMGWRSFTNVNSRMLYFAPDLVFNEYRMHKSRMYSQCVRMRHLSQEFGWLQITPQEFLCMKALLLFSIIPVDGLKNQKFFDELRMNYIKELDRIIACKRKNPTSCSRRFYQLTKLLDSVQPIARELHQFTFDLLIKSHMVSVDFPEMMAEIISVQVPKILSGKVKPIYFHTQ
experimental readout: pIC50
Value format note: pIC50 is -log10 of concentration (mol/L); just state the number.

Example cases with answers are listed next.
CC/C(=C(\c1ccc(O)cc1)c1ccc(OCCN(C)C)cc1)c1ccccc1	5.03
O=C(c1ccccc1)c1ccccc1 [BENZOPHENONE]	3.89
C[C@]12C=CC3=C4CCC(=O)C=C4CCC3C1CC[C@@H]2O (some centres not stated) [TRENBOLONE]	8.58
Oc1ccc(OCc2ccccc2)cc1 [MONOBENZONE]	3.63
C[C@]12CC[C@@H]3c4ccc(O)c(O)c4CC[C@H]3[C@@H]1CC[C@@H]2O	5.59
O=c1cc(-c2ccccc2)oc2ccc(O)cc12 [6-HYDROXYFLAVONE]	3.74

Problem: What does the data say about its pIC50? Entry: O=C(/C=C/c1ccccc1)c1ccc(O)cc1 [4'-HYDROXYCHALCONE]
Solution: 4.24

Problem: What does the data say about its pIC50? Entry: ClC(Cl)=C(c1ccc(Cl)cc1)c1ccccc1Cl
Solution: 4.69

Problem: What does the data say about its pIC50? Entry: Oc1ccc([C@H]2COc3cc(O)ccc3C2)cc1 [AUS-131]
Solution: 4.13

###

Each item that follows carries a reported log10(IC50).
# target or system: Androgen receptor (Rattus norvegicus)
# Sequence (P15207 whole entry): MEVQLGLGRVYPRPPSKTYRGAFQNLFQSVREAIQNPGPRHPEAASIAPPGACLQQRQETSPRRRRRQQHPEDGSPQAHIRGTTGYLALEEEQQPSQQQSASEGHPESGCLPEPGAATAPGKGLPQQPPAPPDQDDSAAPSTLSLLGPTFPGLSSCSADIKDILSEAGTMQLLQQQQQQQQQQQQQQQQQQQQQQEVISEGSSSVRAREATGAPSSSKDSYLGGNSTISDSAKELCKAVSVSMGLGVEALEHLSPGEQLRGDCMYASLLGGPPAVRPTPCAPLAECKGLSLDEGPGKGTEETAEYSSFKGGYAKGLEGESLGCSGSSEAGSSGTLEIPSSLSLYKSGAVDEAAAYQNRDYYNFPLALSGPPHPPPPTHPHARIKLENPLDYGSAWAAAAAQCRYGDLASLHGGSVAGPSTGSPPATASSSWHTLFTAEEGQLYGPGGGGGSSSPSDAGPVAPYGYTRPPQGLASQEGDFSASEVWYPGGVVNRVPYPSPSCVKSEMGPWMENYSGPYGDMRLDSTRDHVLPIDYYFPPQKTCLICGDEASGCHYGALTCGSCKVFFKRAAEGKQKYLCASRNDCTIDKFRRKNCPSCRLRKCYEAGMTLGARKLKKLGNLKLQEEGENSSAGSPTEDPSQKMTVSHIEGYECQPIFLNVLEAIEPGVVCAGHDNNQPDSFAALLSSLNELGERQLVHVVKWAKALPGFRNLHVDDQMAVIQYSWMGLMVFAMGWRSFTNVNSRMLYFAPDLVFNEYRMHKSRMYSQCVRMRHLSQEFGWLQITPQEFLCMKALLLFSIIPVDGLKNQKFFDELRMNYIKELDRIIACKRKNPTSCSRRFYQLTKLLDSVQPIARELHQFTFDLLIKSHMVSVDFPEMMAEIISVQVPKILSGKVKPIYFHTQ
Values reflect log10 of reported IC50 (µM).

Example cases with answers are listed next.
COc1ccc(C(=C(Cl)Cl)c2ccc(O)cc2)cc1	1.31
CCCCCCCCCc1ccc(OCCOCCO)cc1	1.26
COc1cc(C(=C(Cl)Cl)c2ccc(O)cc2)ccc1O [DIHYDROXYMETHOXYCHLOROLEFIN]	0.80
CCCCCCCOc1ccc(O)cc1	1.17
O=C1CC(c2ccc(O)cc2)Oc2ccccc21 (stereo not drawn) [4'-HYDROXY-FLAVANONE]	1.76

Problem: What does the data say about its log10(IC50)? Entry: C[C@]12CC[C@H]3[C@@H](CCC4(OC(=O)c5ccccc5)CC(=O)CC[C@]34C)[C@@H]1CC[C@@H]2O (stereo partly drawn) [DHT BENZOATE]
Solution: -0.59

Problem: What does the data say about its log10(IC50)? Entry: C[C@H]1CCCC(=O)CCCCCc2cc(O)cc(O)c2C(=O)O1 (stereo in doubt; form 2) [ZEARALANONE]
Solution: 1.00

Problem: What does the data say about its log10(IC50)? Entry: C[C@@]12CCC[C@H]1[C@@H]1CCc3cc(O)ccc3[C@H]1CC2
Solution: 1.62

Problem: What does the data say about its log10(IC50)? Entry: Cc1ccc2c(c1)CC[C@@H]1[C@@H]2CC[C@]2(C)[C@@H](O)[C@H](O)C[C@@H]12
Solution: 1.73

Problem: What does the data say about its log10(IC50)? Entry: O=C(/C=C/c1ccc(O)cc1)c1ccccc1 [4-HYDROXYCHALCONE]
Solution: 1.68

###

# target or system: Androgen receptor (Rattus norvegicus, UniProt P15207)
Each item that follows carries a reported pIC50.
Value format note: pIC50 is -log10 of concentration (mol/L); just state the number.

Example cases with answers are listed next.
COc1ccc(C(=C(Cl)Cl)c2ccc(OC)cc2)cc1	4.31
CC1CC2=CC(=O)CC[C@@H]2[C@H]2CC[C@@]3(C)[C@@H](CC[C@]3(C)O)[C@H]12 (single isomer, unassigned)	8.78
Oc1ccc(/C=C/c2ccccc2)cc1 [(E)-4-STYRYLPHENOL]	4.38
O=S1OCC2C(CO1)C1(Cl)C(Cl)=C(Cl)C2(Cl)C1(Cl)Cl (stereo not drawn) [ENDOSULFAN]	4.63
C[C@]12CCC(=O)C=C1CC[C@@H]1[C@@H]2[C@@H](O)C[C@@]2(C)[C@H]1CC[C@]2(O)C(=O)CO [HYDROCORTISONE]	3.74

Problem: What does the data say about its pIC50? Entry: CC(C)(c1ccc(O)cc1)c1ccc(O)cc1
Solution: 4.13

Problem: What does the data say about its pIC50? Entry: C[C@]12CC[C@@H](O)C[C@@H]1CC[C@@H]1[C@@H]2CC[C@]2(C)C(O)CC[C@@H]12 (stereo partly drawn)
Solution: 5.70

###

# target or system: UniProt P15207
# Sequence (P15207 whole entry): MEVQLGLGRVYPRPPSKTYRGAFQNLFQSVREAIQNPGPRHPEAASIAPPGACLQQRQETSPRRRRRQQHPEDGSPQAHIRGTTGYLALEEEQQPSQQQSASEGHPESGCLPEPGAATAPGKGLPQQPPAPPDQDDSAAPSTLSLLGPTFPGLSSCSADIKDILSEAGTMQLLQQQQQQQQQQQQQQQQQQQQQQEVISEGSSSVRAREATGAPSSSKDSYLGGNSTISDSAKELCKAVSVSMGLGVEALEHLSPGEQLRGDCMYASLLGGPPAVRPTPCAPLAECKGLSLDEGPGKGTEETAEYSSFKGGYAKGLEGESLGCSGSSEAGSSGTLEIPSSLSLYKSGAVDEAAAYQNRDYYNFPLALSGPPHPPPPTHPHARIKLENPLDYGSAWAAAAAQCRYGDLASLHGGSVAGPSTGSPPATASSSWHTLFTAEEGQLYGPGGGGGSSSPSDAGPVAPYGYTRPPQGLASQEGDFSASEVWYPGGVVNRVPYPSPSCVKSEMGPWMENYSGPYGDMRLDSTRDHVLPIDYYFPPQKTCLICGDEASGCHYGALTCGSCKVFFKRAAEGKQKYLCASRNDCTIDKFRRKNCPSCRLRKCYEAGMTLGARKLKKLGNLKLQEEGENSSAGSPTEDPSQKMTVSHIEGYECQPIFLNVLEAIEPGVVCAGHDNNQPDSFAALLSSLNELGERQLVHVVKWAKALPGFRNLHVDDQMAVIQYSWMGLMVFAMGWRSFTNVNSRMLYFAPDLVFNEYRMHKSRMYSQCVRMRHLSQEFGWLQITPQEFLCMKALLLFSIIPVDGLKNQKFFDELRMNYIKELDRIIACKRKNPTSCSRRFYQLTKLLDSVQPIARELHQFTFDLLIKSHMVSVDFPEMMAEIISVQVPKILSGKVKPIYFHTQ
Each item that follows carries a reported IC50.
Numeric answer only, unit µM assumed.

Example cases with answers are listed next.
C[C@]12CC[C@@H]3c4cc(O)c(O)cc4CC[C@H]3[C@@H]1CC[C@@H]2O	8.51
O=C(O)COc1cc(Cl)c(Cl)cc1Cl [2,4,5-TRICHLOROPHENOXYACETIC ACID]	457
Clc1ccc(-c2ccccc2Cl)cc1	16.2

Problem: What does the data say about its IC50? Entry: C[C@]12CCCC[C@@H]1CC[C@@H]1[C@@H]2CC[C@]2(C)[C@@H](O)CC[C@@H]12
Solution: 0.011

Source listed as ChEMBL document CHEMBL1141069.
